Biological target: hMAO-A (Homo sapiens, UniProt P21397)
Sequence (P21397 1-527): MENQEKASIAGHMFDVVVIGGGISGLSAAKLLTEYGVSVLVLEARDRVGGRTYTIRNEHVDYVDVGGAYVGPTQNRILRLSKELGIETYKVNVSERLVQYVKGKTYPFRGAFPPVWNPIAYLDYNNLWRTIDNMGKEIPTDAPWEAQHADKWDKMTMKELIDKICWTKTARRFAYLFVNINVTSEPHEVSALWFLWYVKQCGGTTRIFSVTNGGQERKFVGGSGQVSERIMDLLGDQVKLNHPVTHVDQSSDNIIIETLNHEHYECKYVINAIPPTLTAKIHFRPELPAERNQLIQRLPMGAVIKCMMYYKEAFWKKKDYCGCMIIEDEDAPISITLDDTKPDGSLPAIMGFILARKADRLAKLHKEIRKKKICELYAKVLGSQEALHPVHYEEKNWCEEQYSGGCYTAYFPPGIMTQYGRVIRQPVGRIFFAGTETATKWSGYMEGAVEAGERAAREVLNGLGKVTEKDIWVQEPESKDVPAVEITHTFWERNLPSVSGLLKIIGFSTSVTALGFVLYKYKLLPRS
Experiment: hMAO-A inhibition, recombinant enzyme, kynuramine substrate, fluorescence
Conditions: mean ± SD of triplicate determinations
Exercise: state measured IC50 for each of the molecules provided.
Report only the number, with the unit µM understood.

Input: What does the record list as IC50 for CC#CCOc1ccc2ccc(=O)oc2c1 [Compound 6, 7-(But-2-yn-1-yloxy)-2H-chromen-2-one] ?
Output: 21.3

Input: // next record C#CCCCCOc1ccc2ccc(=O)oc2c1 [Compound 9, 7-(Hex-5-yn-1-yloxy)-2H-chromen-2-one]
Output: 0.65

Input: Now this one: CCC#CCOc1ccc2ccc(=O)oc2c1 [Compound 7, 7-(Pent-2-yn-1-yloxy)-2H-chromen-2-one]
Output: 11.2

Input: Item: C#CCCCOc1ccc2ccc(=O)oc2c1 [Compound 8, 7-(Pent-4-yn-1-yloxy)-2H-chromen-2-one]
Output: 5.7
